Could you please report measured pIC50 for the items listed next?
Target: MMP-3 (Matrix Metalloproteinase-3, Stromelysin-1) (Homo sapiens)
Construct: C-terminal truncated form of human prostromelysin cDNA
Sequence (P08254 100-272 limits assumed): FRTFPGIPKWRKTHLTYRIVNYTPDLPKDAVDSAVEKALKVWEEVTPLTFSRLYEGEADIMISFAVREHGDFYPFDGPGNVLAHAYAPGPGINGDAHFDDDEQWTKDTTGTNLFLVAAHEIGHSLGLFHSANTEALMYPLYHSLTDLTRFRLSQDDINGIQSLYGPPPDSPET
Test: Inhibition assay against MMP-3 (fluorescent MCA-labeled substrate)
Conditions: Table 10; active MMP at 20 nM, 37° C., 1.5 hours; read-out: IC50 MMP3
Protocol: C-terminal truncated form of human prostromelysin cDNA (proMMP-3, cDNA sequence in Nature, 348, 699-704 (1990)) was subcloned, expressed in E.coli and purified as described previously (Biochemistry 30, 6476-6483 (1991)). Activation of proMMP-3 was achieved by treatment with 1 mM 4-aminophenylmercuric acetate at 37° C. for 60 min. Enzymatic assays were performed in accordance with C. G. Knight's method (FEBS Lett., 296(3), 263-266 (1992)). […]
One number for each entry, as −log10 of the molar value.

For orientation, consider the following solved cases.
compound: O=C(CN1C(=O)C(Cc2ccc(Oc3ccccc3)cc2)Sc2ccccc21)NO (centres unmarked) [Example 409]
observation type: pIC50
measurement: 6.55

compound: CCCC(C(=O)NO)N1C(=O)CSC1c1ccc(Oc2ccccc2)cc1 (centres unmarked) [Example 143]
observation type: pIC50
measurement: 5.90

Please supply pIC50 for each of the following items, keeping them in order.
1. CCCNC(=O)CC1SC(c2ccc(Cl)cc2)N(C(Cc2ccc(OC(C)(C)C)cc2)C(=O)NO)C1=O (centres unmarked) [Example 283]
2. COCCCNC(=O)CC1SC(c2ccc(OC)cc2)N(C(Cc2ccc(OC(C)(C)C)cc2)C(=O)NO)C1=O (centres unmarked) [Example 329]
3. CCC(C)C(C(=O)NO)N1C(=O)CSC1c1ccc(OC)c(F)c1 (centres unmarked) [Example 175]
4. COc1ccc(NC(=O)CC2Sc3ccccc3N(CC(=O)NO)C2=O)cc1 (centres unmarked) [Example 441]
5. COc1ccc(C2SC(CC(=O)NCCCN3CCCCC3C)C(=O)N2C(Cc2ccc(OC(C)(C)C)cc2)C(=O)NO)cc1 (centres unmarked) [Example 330]

1: 6.21; 2: 6.81; 3: 5.94; 4: 5.53; 5: 6.13

Look at this compound and give its reported pIC50. O=C(CN1C(=O)C(Cc2ccc(O)cc2)Sc2ccccc21)NO (centres unmarked) [Example 406]
5.49

---

pIC50: −log10 of the molar value.
# pIC50 measurements, system: MMP-9 (Homo sapiens)
# Sequence (P14780 107-707 limits assumed, species assumed): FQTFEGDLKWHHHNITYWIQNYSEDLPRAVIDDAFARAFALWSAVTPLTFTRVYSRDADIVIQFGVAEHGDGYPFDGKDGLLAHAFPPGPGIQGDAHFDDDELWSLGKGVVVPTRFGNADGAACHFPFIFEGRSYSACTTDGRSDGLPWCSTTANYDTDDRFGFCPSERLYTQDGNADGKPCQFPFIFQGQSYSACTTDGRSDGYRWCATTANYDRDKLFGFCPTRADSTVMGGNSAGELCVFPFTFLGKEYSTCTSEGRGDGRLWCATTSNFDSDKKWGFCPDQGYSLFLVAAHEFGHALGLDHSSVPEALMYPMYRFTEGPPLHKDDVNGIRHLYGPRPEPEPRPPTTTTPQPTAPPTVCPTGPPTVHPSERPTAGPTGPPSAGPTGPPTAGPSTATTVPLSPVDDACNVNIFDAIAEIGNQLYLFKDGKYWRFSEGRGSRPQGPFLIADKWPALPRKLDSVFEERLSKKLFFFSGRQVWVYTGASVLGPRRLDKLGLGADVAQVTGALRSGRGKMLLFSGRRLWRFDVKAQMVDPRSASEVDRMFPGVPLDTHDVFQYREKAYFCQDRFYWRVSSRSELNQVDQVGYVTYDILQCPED

molecule: O=C(CN1C(=O)/C(=C/c2ccc(Oc3ccccc3)cc2)Sc2ccccc21)NO
observation type: pIC50
measurement: > 8.00

Look at this molecule and give its reported pIC50. COc1ccc(C2SCC(=O)N2[C@@H](CC(C)C)C(=O)NO)cc1 (some centres unmarked)
< 6.00

---

Could you please report measured IC50 for the items listed next?
Sequence of the target: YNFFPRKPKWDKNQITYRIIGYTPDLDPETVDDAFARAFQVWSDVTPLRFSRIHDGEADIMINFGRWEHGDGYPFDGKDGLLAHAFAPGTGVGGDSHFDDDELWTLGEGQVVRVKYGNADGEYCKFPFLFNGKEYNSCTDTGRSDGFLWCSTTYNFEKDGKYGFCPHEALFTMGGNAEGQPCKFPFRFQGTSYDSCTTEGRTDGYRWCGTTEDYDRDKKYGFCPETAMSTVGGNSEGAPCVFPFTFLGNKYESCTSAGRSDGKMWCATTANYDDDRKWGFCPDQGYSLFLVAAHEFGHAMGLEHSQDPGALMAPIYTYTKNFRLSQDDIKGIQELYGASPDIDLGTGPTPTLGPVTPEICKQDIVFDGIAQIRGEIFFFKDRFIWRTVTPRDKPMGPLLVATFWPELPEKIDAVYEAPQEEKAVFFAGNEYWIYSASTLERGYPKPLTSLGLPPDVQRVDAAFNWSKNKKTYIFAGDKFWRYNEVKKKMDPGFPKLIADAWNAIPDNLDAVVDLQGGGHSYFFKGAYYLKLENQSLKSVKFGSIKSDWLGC

smiles structure: O=C(CN1C(=O)/C(=C/c2ccc(Oc3ccccc3)cc2)Sc2ccccc21)NO
IC50: 300 nM

Look at this molecule and give its reported IC50. CCCCOc1ccc(C=C2Sc3ccccc3N(CC(=O)NO)C2=O)cc1
> 1000 nM
